The entries below are paired with their reported kinase still bound, per cent of control.
System: FLT3 (human), P36888 [ITD]
Sequence (P36888 whole entry, looked up, stated change not applied): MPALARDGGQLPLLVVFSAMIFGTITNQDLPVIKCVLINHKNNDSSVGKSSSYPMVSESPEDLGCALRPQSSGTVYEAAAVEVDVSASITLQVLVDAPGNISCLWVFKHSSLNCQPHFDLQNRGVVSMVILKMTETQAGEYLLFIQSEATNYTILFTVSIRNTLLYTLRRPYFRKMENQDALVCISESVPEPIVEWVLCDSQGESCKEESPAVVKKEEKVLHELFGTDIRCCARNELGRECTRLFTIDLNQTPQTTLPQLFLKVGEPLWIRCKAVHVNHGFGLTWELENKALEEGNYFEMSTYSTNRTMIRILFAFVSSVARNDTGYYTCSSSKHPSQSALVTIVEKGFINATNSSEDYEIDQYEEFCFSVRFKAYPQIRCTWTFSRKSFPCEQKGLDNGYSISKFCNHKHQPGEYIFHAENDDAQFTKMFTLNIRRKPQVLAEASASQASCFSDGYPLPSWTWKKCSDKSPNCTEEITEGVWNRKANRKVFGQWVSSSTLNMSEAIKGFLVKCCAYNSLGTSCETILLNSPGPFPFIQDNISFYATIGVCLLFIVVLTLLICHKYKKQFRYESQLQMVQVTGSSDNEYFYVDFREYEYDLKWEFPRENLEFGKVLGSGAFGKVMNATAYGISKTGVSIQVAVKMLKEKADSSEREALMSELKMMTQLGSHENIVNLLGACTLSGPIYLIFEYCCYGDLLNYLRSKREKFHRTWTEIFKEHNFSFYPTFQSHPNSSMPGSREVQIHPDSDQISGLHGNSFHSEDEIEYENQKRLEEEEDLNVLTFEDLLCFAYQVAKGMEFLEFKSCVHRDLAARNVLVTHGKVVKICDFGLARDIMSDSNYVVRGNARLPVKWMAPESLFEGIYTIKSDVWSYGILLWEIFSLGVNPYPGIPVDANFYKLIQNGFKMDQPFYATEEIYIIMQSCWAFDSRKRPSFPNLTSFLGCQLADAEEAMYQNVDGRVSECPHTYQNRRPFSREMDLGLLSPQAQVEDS
Assay: KINOMEscan competition binding
Conditions: compound 10.0 µM
Write the number in % without appending the unit.

Record excerpt, results attached:
COc1cc2ncn(-c3cc(OCc4ccccc4C(F)(F)F)c(C(N)=O)s3)c2cc1OC    26
CNC(=O)Nc1ccc(-c2nc(N3CC4CCC(C3)O4)c3cnn(C4CCC5(CC4)OCCO5)c3n2)cc1    100
C[C@@H](Oc1cc(-n2cnc3ccc(CN4CCN(C)CC4)cc32)sc1C(N)=O)c1ccccc1C(F)(F)F    31
CCN(CC)CCCCNc1ncc2cc(-c3cc(OC)cc(OC)c3)c(NC(=O)NC(C)(C)C)nc2n1    100

Observed kinase still bound, per cent of control on FLT3 (human), P36888 [ITD] for CN(C)C/C=C/C(=O)Nc1cccc(Nc2ncc3c(n2)N(C)c2ccccc2C(=O)N3C)c1 , please.
9.4

Observed kinase still bound, per cent of control on FLT3 (human), P36888 [ITD] for COc1cc2ncnc(-n3nc(-c4ccccn4)nc3N)c2cc1OC , please.
5.6

Observed kinase still bound, per cent of control on FLT3 (human), P36888 [ITD] for O=c1cc(N2CCOCC2)oc2c(-c3cccc4c3sc3ccccc34)cccc12 , please.
93

Observed kinase still bound, per cent of control on FLT3 (human), P36888 [ITD] for C=CC(=O)Nc1cccc(Oc2nc(Nc3ccc(N4CCN(C)CC4)cc3OC)ncc2Cl)c1 , please.
0.85

Observed kinase still bound, per cent of control on FLT3 (human), P36888 [ITD] for CC[C@@H]1C(=O)N(C)c2cnc(Nc3ccc(C(=O)NC4CCN(C)CC4)cc3OC)nc2N1C1CCCC1 , please.
100
